system: radish, wild (wild radish, Raphanus raphanistrum); assay: Test D controlled growth environment herbicide test, pre- and postemergence; assay type: in vivo; settings: Postemergence, 250 g ai/ha; scale 0 to 100 (0 no effect, 100 complete control)
measurement_kind: Plant response rating, Radish, Wild
Please reply with the number alone, leaving off any unit.

Solved entries (count: 2):
* CCC(=O)Oc1c(C)nn(C)c(=O)c1-c1c(C)sc2ccc(C)cc12 | 65
* Cc1ccc2ccccc2c1-c1c(O)c(C)nn(C)c1=O | 100

What value of Plant response rating, Radish, Wild has been recorded for this entry: CC(=O)Oc1c(C)nn(C)c(=O)c1-c1c(C)sc2c(C)cc(C)cc12
90

Then this compound: COC(=O)Oc1c(C)nn(C)c(=O)c1-c1c(C)sc2c(C)cc(C)cc12
100

Try this compound too: Cc1cc(C)c2sc(C)c(-c3c(OC(=O)OCCCl)c(C)nn(C)c3=O)c2c1
80

What about this compound? CCC(=O)Oc1c(C)nn(C)c(=O)c1-c1c(C)sc2ccc(Cl)cc12
100

And CCOC(=O)Oc1c(C)nn(C)c(=O)c1-c1c(C)ccc2ccccc12 ?
100

Repeat for the following compound: Cc1ccc2sc(C)c(-c3c(O)c(C)nn(C)c3=O)c2c1
60

Likewise for CC(=O)Oc1c(C)nn(C)c(=O)c1-c1c(C)cc(C)c2ccccc12 ?
100

Please give the result for Cc1ccc2ccc(C)c(-c3c(O)c(C)nn(C)c3=O)c2c1 too.
95
